# System: RNA polymerase II Serine 5 phosphorylation (Rpb1 CTD), downstream substrate of CDK7
# assay-explanation: Imaging-based cellular RNA PolII Ser5 phosphorylation assay in A549 cells
# Type: cell-based, human
# experimental-context: Homo sapiens, A549, 3 h, challenged with compound for 3 hours, read-out: pRNA polII Ser5 (A549) pIC50 (converted)
endpoint-label: IC50

Consider the reported IC50 for these molecules:
Cc1cccc([C@@H]2CN(C)CC[C@H]2C(=O)N2Cc3cc(Nc4cnn(C)c4)ncc3C[C@@H]2C)c1 (single isomer, unassigned)
~83.2 nM
C[C@@H]1Cc2cnc(Nc3ccnc(C4CC4)c3)nc2CN1C(=O)[C@H]1CCN(C)C[C@@H]1c1ccccc1
~33.1 nM

From here, focus on the item given below.
Give the reported IC50 for this molecule. C[C@@H]1Cc2cnc(N[C@H](C)c3ccccn3)nc2CN1C(=O)[C@H]1CCN(C)C[C@@H]1c1ccccc1 302 nM

----------
Field: IC50. Provide a value for each of the compounds that follow.
# System: RNA polymerase II Serine 5 phosphorylation (Rpb1 CTD), downstream substrate of CDK7
# assay-explanation: Imaging-based cellular RNA PolII Ser5 phosphorylation assay in A549 cells
# Assay type: cell-based, human
# experimental-context: Homo sapiens, A549, 3 h, challenged with compound for 3 hours, read-out: pRNA polII Ser5 (A549) pIC50 (converted)
One number for each entry, in nM.

Cc1cn(C)nc1CNc1ncc2c(n1)CN(C(=O)[C@H]1CCN(C)C[C@@H]1c1ccccc1)[C@H](C)C2 [Compound 61]
912
C[C@@H]1Cc2cnc(NC3CCOCC3)nc2CN1C(=O)[C@H]1CCN(C)C[C@@H]1C1CCOCC1 (relative stereo) [Compound 115]
6310
C[C@@H]1Cc2cnc(NC3CCOCC3)nc2CN1C(=O)[C@@H]1CCN(C)C[C@H]1c1ccncc1 (relative stereo) [Compound 116]
1410
Cc1cc(CNc2ncc3c(n2)CN(C(=O)[C@H]2CCN(C)C[C@@H]2c2ccccc2)[C@H](C)C3)nn1C [Compound 65]
6610
C[C@H]1Cc2cnc(NCc3ccn(C)n3)cc2CN1C(=O)[C@H]1CCN(C)C[C@@H]1c1ccccc1 (relative stereo) [Compound 174]
35.5

Would you mind listing IC50 for each of the following compounds?
1. C[C@@H]1Cc2cnc(NCc3ccccc3)nc2CN1C(=O)[C@H]1CCN(CC2COC2)C[C@@H]1c1ccccc1 (single isomer, unassigned) [Compound 155]
2. C[C@@H]1Cc2cnc(NC3CCS(=O)(=O)CC3)nc2CN1C(=O)N1CCN(C)C[C@@H]1c1ccccc1 [Compound 214]

1. 537
2. 3550

----------
Field: IC50. Provide a value for each of the molecules that follow.
# System: RNA polymerase II Serine 5 phosphorylation (Rpb1 CTD), downstream substrate of CDK7
# assay-explanation: Imaging-based cellular RNA PolII Ser5 phosphorylation assay in A549 cells
# Format: cell-based, human
# experimental-context: Homo sapiens, A549, 3 h, challenged with compound for 3 hours, read-out: pRNA polII Ser5 (A549) pIC50 (converted)
One number for each entry, in nM.

Consider the reported IC50 for these molecules:
C[C@@H]1Cc2cnc(N[C@H]3CCC[C@H](O)C3)nc2CN1C(=O)[C@H]1CCN(C)C[C@@H]1c1ccccc1 [Compound 59]
141
C[C@@H]1Cc2cnc(NCc3ccn(C)n3)nc2CN1C(=O)N1CCN(C)C[C@@H]1c1ccccc1 [Compound 213]
1380
CC(C)N1CC[C@@H](C(=O)N2Cc3nc(NC4CCOCC4)ncc3C[C@H]2C)[C@H](c2ccc(Cl)c(F)c2)C1 (single isomer, unassigned) [Compound 165]
3240

From here, focus on the item given below.
Give the reported IC50 for this molecule. C[C@@H]1Cc2cnc(NCc3ccccn3)nc2CN1C(=O)[C@H]1CCN(C)C[C@@H]1c1ccccc1 [Compound 35] 200
